tested on: SW480; experiment: cell viability (CellTiter-Glo) relative to plate median (fraction of plate median); higher = more viable cells; settings: 10 µM; treatment time 24 h; reporter: 7TFP
Strictly below 1 in cell viability: met. Otherwise: not met.

Take a look at these entries with their results.
compound=COc1ccc(-c2ccc3ncc4c(c3c2)n(-c2ccc(N3CCNCC3)c(C(F)(F)F)c2)c(=O)n4C)cn1 assigned_label=met
compound=COc1ncc(-c2ccc3nccc(-c4ccnnc4)c3c2)cc1NS(=O)(=O)c1ccc(F)cc1F assigned_label="not met"
compound="CNC(=O)c1cc(Oc2ccc(NC(=O)Nc3ccc(Cl)c(C(F)(F)F)c3)c(F)c2)ccn1 [Regorafenib (BAY 73-4506)]" assigned_label="not met"

input: Bench note: check whether `CCCCOc1c(C(=O)c2c(F)cc(C)cc2F)c[nH]c2nncc1-2` shows cell viability below 1
output: met

input: Lab note: confirm whether the reported cell viability for this compound is below 1, equality not counting. compound: `Clc1ccc(C2(c3ccc(-c4cn[nH]c4)cc3)CCNCC2)cc1`
output: not met

input: # TODO verify cell viability < 1 strictly for this compound: CN1CCN(c2ccc3nc(-c4c(N)c5c(F)cccc5[nH]c4=O)[nH]c3c2)CC1 [Dovitinib Dilactic acid (TKI258 Dilactic acid)]
output: not met

input: Decide: cell viability of `C=CC(=O)N1CCC[C@@H](n2nc(-c3ccc(Oc4ccccc4)cc3)c3c(N)ncnc32)C1` strictly below 1?
output: not met

input: Quick check: cell viability of `Cc1[nH]c(/C=C2\C(=O)Nc3ccc(S(=O)(=O)N(C)c4cccc(Cl)c4)cc32)c(C)c1C(=O)N1CCN(C)CC1` under 1?
output: not met

input: Find out if reported cell viability for CCOc1cc2ncc(C#N)c(Nc3ccc(OCc4ccccn4)c(Cl)c3)c2cc1NC(=O)/C=C/CN(C)C [Neratinib (HKI-272)] is less than 1
output: met

input: cell viability under 1? Item: `CCN1CCN(c2ccc(Nc3cc(N(C)C(=O)Nc4c(Cl)c(OC)cc(OC)c4Cl)ncn3)cc2)CC1`
output: met

input: Does the reported cell viability of the following compound sit strictly below 1? `Cc1cnc(Nc2ccc(N3CCN(C)CC3)cc2)nc1Nc1cccc(S(=O)(=O)NC(C)(C)C)c1`
output: met

input: cell viability strictly < 1 for this compound? COc1cc2/c(=N/c3ccc(Br)cc3F)nc[nH]c2cc1OCC1CCN(C)CC1 [Vandetanib (Zactima)]
output: not met

input: Consider COc1cc2ncnc(Nc3cccc(Cl)c3)c2cc1OC [AG-1478 (Tyrphostin AG-1478)] . Does its cell viability lie strictly below 1?
output: met

----------
tested on: DLD1; experiment: TCF/Wnt firefly luciferase reporter signal relative to plate median (fraction of plate median); higher = higher Wnt reporter signal; settings: 5 µM; treatment time 24 h; reporter: 7TFP
measurement.type: TCF/Wnt firefly luciferase reporter signal
Quick one: just the number, no unit, thanks!

compound=COc1ccc(-c2cc(=O)c3c(O)c(OC)c(O[C@@H]4O[C@H](CO[C@@H]5O[C@@H](C)[C@H](O)[C@@H](O)[C@H]5O)[C@@H](O)[C@H](O)[C@H]4O)cc3o2)cc1 quantitative_readout=1.07
compound=CC(O)(P(=O)(O)O)P(=O)(O)O quantitative_readout=1
compound=CCn1nc(C(=O)O)c(=O)c2cc3c(cc21)OCO3 quantitative_readout=1
compound=N=C(N)NCCCCN quantitative_readout=1.02
compound="C=C(C)[C@@H]1C[C@H](O)[C@]2(C(=O)O)CC[C@]3(C)[C@H](C[C@H]4OC(=O)C[C@@H](O)[C@]5(C)[C@@H]4[C@@]3(C)CC[C@H]5C(=C)C)[C@@H]12 [22alpha-hydroxychiisanogenin (11)]" quantitative_readout=0.859

input: Reported TCF/Wnt firefly luciferase reporter signal, compound `Oc1c(Cl)cc(Cl)cc1Sc1cc(Cl)cc(Cl)c1O` : ____
output: 0.979

Origin of values: the supplement of paper PMC6522484
